test system: Cryptococcus neoformans; experiment: Antifungal activity against Cryptococcus neoformans ATCC 32264 incubated for 48 hrs under dark condition by broth microdilution method; type: functional; conditions: ATCC 32264, 48 h
Measured MIC50 of individual entries
MEASURED PARAMETER: MIC50 (µg/mL)

| MOLECULE | MEASURED PARAMETER | RESULT QUALIFIER | NUMERIC VALUE |
| --- | --- | --- | --- |
| O=C(/C=C/c1cccc(Nc2ccnc3cc(Cl)ccc23)c1)c1ccc(Cl)cc1 | MIC50 | = | 7.8 |
| Clc1ccc(N2N=C(c3ccc(Br)cc3)CC2c2cccc(Nc3ccnc4cc(Cl)ccc34)c2)cc1 (stereo not drawn) | MIC50 | ≥ | 250 |
| O=CN1N=C(c2ccc(Cl)cc2)CC1c1cccc(Nc2ccnc3cc(Cl)ccc23)c1 (stereo not drawn) | MIC50 | = | 31.2 |
| COc1cc(C2=NN(c3ccc(Cl)cc3)C(c3cccc(Nc4ccnc5cc(Cl)ccc45)c3)C2)cc(OC)c1OC (stereo not drawn) | MIC50 | ≥ | 250 |
| COc1cc(C2=NN(C=O)C(c3cccc(Nc4ccnc5cc(Cl)ccc45)c3)C2)cc(OC)c1OC (stereo not drawn) | MIC50 | ≥ | 250 |
| Clc1cc(Cl)cc(N2N=C(c3ccccc3)CC2c2cccc(Nc3ccnc4cc(Cl)ccc34)c2)c1 (stereo not drawn) | MIC50 | ≥ | 250 |
| COc1cc(C2=NN(c3cc(Cl)cc(Cl)c3)C(c3cccc(Nc4ccnc5cc(Cl)ccc45)c3)C2)cc(OC)c1OC (stereo not drawn) | MIC50 | ≥ | 250 |
| O=CN1N=C(c2ccccc2)CC1c1cccc(Nc2ccnc3cc(Cl)ccc23)c1 (stereo not drawn) | MIC50 | = | 250 |
| COc1ccc(C(=O)/C=C/c2cccc(Nc3ccnc4cc(Cl)ccc34)c2)cc1 | MIC50 | ≥ | 250 |
| Clc1ccc(N2N=C(c3ccccc3)CC2c2cccc(Nc3ccnc4cc(Cl)ccc34)c2)cc1 (stereo not drawn) | MIC50 | = | 250 |
| Cc1ccc(C2=NN(C=O)C(c3cccc(Nc4ccnc5cc(Cl)ccc45)c3)C2)cc1 (stereo not drawn) | MIC50 | = | 125 |
| CC(=O)N1N=C(c2ccc(C)cc2)CC1c1cccc(Nc2ccnc3cc(Cl)ccc23)c1 (stereo not drawn) | MIC50 | = | 125 |
| COc1cc(C2=NN(c3ccccc3)C(c3cccc(Nc4ccnc5cc(Cl)ccc45)c3)C2)cc(OC)c1OC (stereo not drawn) | MIC50 | = | 250 |
| COc1ccc(C2=NN(C=O)C(c3cccc(Nc4ccnc5cc(Cl)ccc45)c3)C2)cc1 (stereo not drawn) | MIC50 | = | 125 |
| Clc1ccc2c(Nc3cccc(C4CC(c5ccccc5)=NN4c4ccccc4)c3)ccnc2c1 (stereo not drawn) | MIC50 | = | 250 |
| Cc1ccc(C2=NN(c3ccc(Cl)cc3)C(c3cccc(Nc4ccnc5cc(Cl)ccc45)c3)C2)cc1 (stereo not drawn) | MIC50 | ≥ | 250 |
| CC(=O)N1N=C(c2ccccc2)CC1c1cccc(Nc2ccnc3cc(Cl)ccc23)c1 (stereo not drawn) | MIC50 | = | 250 |
| Clc1ccc2c(Nc3cccc(C4CC(c5ccc(Br)cc5)=NN4c4ccccc4)c3)ccnc2c1 (stereo not drawn) | MIC50 | ≥ | 250 |
| Clc1ccc(C2=NN(c3ccc(Cl)cc3)C(c3cccc(Nc4ccnc5cc(Cl)ccc45)c3)C2)cc1 (stereo not drawn) | MIC50 | = | 250 |
| COc1ccc(C2=NN(C(C)=O)C(c3cccc(Nc4ccnc5cc(Cl)ccc45)c3)C2)cc1 (stereo not drawn) | MIC50 | = | 250 |
| COc1cc(C2=NN(C(C)=O)C(c3cccc(Nc4ccnc5cc(Cl)ccc45)c3)C2)cc(OC)c1OC (stereo not drawn) | MIC50 | = | 250 |
| Clc1cc(Cl)cc(N2N=C(c3ccc(Br)cc3)CC2c2cccc(Nc3ccnc4cc(Cl)ccc34)c2)c1 (stereo not drawn) | MIC50 | ≥ | 250 |
| CC(=O)N1N=C(c2ccc(Cl)cc2)CC1c1cccc(Nc2ccnc3cc(Cl)ccc23)c1 (stereo not drawn) | MIC50 | = | 125 |
| Clc1ccc(C2=NN(c3ccccc3)C(c3cccc(Nc4ccnc5cc(Cl)ccc45)c3)C2)cc1 (stereo not drawn) | MIC50 | ≥ | 250 |
| COc1cc(C(=O)/C=C/c2cccc(Nc3ccnc4cc(Cl)ccc34)c2)cc(OC)c1OC | MIC50 | ≥ | 250 |
| Cc1ccc(C2=NN(c3ccccc3)C(c3cccc(Nc4ccnc5cc(Cl)ccc45)c3)C2)cc1 (stereo not drawn) | MIC50 | ≥ | 250 |
| COc1ccc(C2=NN(c3ccc(Cl)cc3)C(c3cccc(Nc4ccnc5cc(Cl)ccc45)c3)C2)cc1 (stereo not drawn) | MIC50 | = | 250 |
| Clc1ccc(C2=NN(c3cc(Cl)cc(Cl)c3)C(c3cccc(Nc4ccnc5cc(Cl)ccc45)c3)C2)cc1 (stereo not drawn) | MIC50 | ≥ | 250 |
